Sourced from patent US10213433B2

- Measurement Target: Bcl-2 protein (Homo sapiens (Human))
- Sequence (P10415 whole entry): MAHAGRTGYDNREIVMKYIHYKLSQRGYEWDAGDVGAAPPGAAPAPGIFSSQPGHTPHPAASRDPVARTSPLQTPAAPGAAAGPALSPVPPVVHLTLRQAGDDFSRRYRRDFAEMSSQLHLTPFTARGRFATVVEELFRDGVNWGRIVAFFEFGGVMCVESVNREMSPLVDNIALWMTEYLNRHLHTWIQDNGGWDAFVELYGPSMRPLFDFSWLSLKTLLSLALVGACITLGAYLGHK
Readout Kind: Ki

Molecule | Readout Kind | Obs Value
CC(C)N1CCC2(CCC(c3ccc(Cl)cc3)=C(CN3CCN(c4ccc(C(=O)NS(=O)(=O)c5cnc(OCC6CCOCC6)c(Cl)c5)c(Oc5cnc6[nH]ccc6c5)c4)CC3)C2)CC1 | Ki | < 0.01 nM
CC1(C)CCC(CN2CCN(c3ccc(C(=O)NS(=O)(=O)c4ccc(NC[C@H]5CCN(C6COC6)C5)c([N+](=O)[O-])c4)c(Oc4cnc5[nH]ccc5c4)c3)CC2)=C(c2ccc(Cl)cc2)C1 | Ki | < 0.01 nM
CC1(C)CCC(CN2CCN(c3ccc(C(=O)NS(=O)(=O)c4ccc(OCC5COCCN5)c([N+](=O)[O-])c4)c(Oc4cnc5[nH]ccc5c4)c3)CC2)=C(c2ccc(Cl)cc2)C1 (stereo not shown) | Ki | < 0.01 nM
CC1(C)CCCC(CN2CCN(c3ccc(C(=O)NS(=O)(=O)c4ccc(NCC5CCOCC5)c([N+](=O)[O-])c4)c(Oc4cnc5[nH]ccc5c4)c3)CC2)=C1c1ccc(Cl)cc1 | Ki | < 0.01 nM
CC1(C)CCC(CN2CCN(c3ccc(C(=O)NS(=O)(=O)c4ccc(NN5CCS(=O)(=O)CC5)c([N+](=O)[O-])c4)c(Oc4cnc5[nH]ccc5c4)c3)CC2)=C(c2ccc(Cl)cc2)C1 | Ki | 0.035 nM
CC1(C)CCC(CN2CCN(c3ccc(C(=O)NS(=O)(=O)c4ccc(NCC5CCCN(S(C)(=O)=O)C5)c([N+](=O)[O-])c4)c(Oc4cnc5[nH]ccc5c4)c3)CC2)=C(c2ccc(Cl)cc2)C1 (stereo not shown) | Ki | < 0.01 nM
CC1(C)CCC(CN2CCN(c3ccc(C(=O)NS(=O)(=O)c4ccc(NC[C@H]5CC[C@H](O)C5)c([N+](=O)[O-])c4)c(Oc4cnc5[nH]ccc5c4)c3)CC2)=C(c2ccc(Cl)cc2)C1 | Ki | < 0.01 nM
CC1(C)CCC(CN2CCN(c3ccc(C(=O)NS(=O)(=O)c4ccc(NC[C@@H]5CC[C@H](O)C5)c([N+](=O)[O-])c4)c(Oc4cnc5[nH]ccc5c4)c3)CC2)=C(c2ccc(Cl)cc2)C1 | Ki | < 0.01 nM
CC1(C)CCC(CN2CCN(c3ccc(C(=O)NS(=O)(=O)c4ccc(NC5CCC(N(CCC#N)C6CC6)CC5)c([N+](=O)[O-])c4)c(Oc4cnc5[nH]ccc5c4)c3)CC2)=C(c2ccc(Cl)cc2)C1 (stereo not shown) | Ki | < 0.01 nM
CC1(C)CCC(CN2CCN(c3ccc(C(=O)NS(=O)(=O)c4ccc(N[C@@H]5CCN(C6CCOC(C)(C)C6)C5)c([N+](=O)[O-])c4)c(Oc4cnc5[nH]ccc5c4)c3)CC2)=C(c2ccc(Cl)cc2)C1 (stereo partly shown) | Ki | < 0.01 nM
